# Test system: FMC63
# Sequence (as listed by the source): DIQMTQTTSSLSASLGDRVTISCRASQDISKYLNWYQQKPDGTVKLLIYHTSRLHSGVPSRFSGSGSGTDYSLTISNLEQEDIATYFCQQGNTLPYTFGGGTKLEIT
# Sequence (as listed by the source): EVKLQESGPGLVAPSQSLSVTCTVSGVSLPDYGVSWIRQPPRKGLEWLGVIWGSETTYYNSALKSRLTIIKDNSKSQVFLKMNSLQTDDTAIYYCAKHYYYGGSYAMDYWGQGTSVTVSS
# ASSAY PROCEDURE: CD19 variant binding to anti-CD19 antibody FMC63 (score)
# MEASUREMENT PARAMETERS: Table 1A, CD19 single mutants (positions of SEQ ID NO:2)
MEASURE: FMC63 Binding Score
Field format: numeric only.

Value of FMC63 Binding Score reported for the molecule V16W: CD19 variant (protein) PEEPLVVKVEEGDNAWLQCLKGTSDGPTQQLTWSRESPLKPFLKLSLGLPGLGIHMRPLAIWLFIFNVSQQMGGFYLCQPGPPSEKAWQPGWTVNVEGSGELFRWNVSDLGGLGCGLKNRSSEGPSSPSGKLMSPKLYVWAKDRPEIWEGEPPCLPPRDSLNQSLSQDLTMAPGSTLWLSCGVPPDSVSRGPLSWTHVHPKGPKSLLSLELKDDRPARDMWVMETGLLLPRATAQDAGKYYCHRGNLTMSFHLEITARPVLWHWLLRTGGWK is 6.7
